Measured values drawn from patent US20250135039A1 for this set.

Test system: U251 human glioblastoma cell line
assayNotes: in vitro FM-HCR assay of MGMT activity (mPlum O^6MeG reporter plasmid)
Type: cell-based
assayContext: DMSO condition; relative to wild-type MGMT in same condition
So I've got a bunch of molecules here, and I need their MGMT activity (% of WT) DMSO values.

In: Entry Y158W: MGMT polypeptide with mutation Y158W (protein) MDKDCEMKRTTLDSPLGKLELSGCEQGLHEIKLLGKGTSAADAVEVPAPAAVLGGPEPLMQCTAWLNAYFHQPEAIEEFPVPALHHPVFQQESFTRQVLWKLLKVVKFGEVISYQQLAALAGNPKAARAVGGAMRGNPVPILIPCHRVVCSSGAVGNWSGGLAVKEWLLAHEGHRLGKPGLGGSSGLAGAWLKGAGATSGSPPAGRN needs its MGMT activity (% of WT) DMSO filled in; supply it.
Out: 71.2 % of WT

In: Look up and report measured MGMT activity (% of WT) DMSO for this entry: P140K: O^6BG-resistant MGMT polypeptide with K at position 140, SEQ ID NO: 8; used as control (protein, REGION 1..207: note = Synthetic: MGMTP140K, used as control) MDKDCEMKRTTLDSPLGKLELSGCEQGLHEIKLLGKGTSAADAVEVPAPAAVLGGPEPLMQCTAWLNAYFHQPEAIEEFPVPALHHPVFQQESFTRQVLWKLLKVVKFGEVISYQQLAALAGNPKAARAVGGAMRGNPVKILIPCHRVVCSSGAVGNYSGGLAVKEWLLAHEGHRLGKPGLGGSSGLAGAWLKGAGATSGSPPAGRN
Out: 61.3 % of WT
